// data source = patent US20190175688A1

# system-under-test: T1, HIV-1 YU-2 gp120 (wild-type gp120YU-2, monomeric) (HIV-1 (YU-2), UniProt P35961 32-498)
# T1 construct: domain: gp120; only gp120 stood in the assay
# measurement-protocol: SPR competition, sCD4 inhibition: inhibition of gp120 binding to immobilized sCD4
Starred links: 1 amine or outer side, 2 acyl side, 3 side chain; linkers in the order of their positions; H or OH if unused. Positions of bridges follow the written chain, without caps; N, C: chain ends. Non-standard residues stand in square brackets, D forms with d. No end group written: not given here. X3 = (2S,4S)‑4‑(4-ferrocenyl-1H-1,2,3-triazol-1-yl)proline, O=C([C@@H]1C[C@H](n2cc(-[c-]3cccc3)nn2)CN1[*:1])[*:2].[Fe+2].c1cc[cH-]c1; Pro(cis-4-Trz(4-CH2CH2Ph)) = O=C(O)[C@@H]1C[C@H](n2cc(CCc3ccccc3)nn2)CN1; Orn = NCCC[C@H](N)C(=O)O
Listing: pIC50 of selected binders
Scale for pIC50: -log10 of concentration given in mol/L; no unit attached.

DNI[Pro(cis-4-Trz(4-CH2CH2Ph))]W[Orn]-NH2 (lactam 1-6; N-terminus assumed; SMILES CC[C@H](C)[C@@H]1NC(=O)[C@H](CC(N)=O)NC(=O)[C@@H](N)CC(=O)NCCC[C@@H](C(N)=O)NC(=O)[C@H](Cc2c[nH]c3ccccc23)NC(=O)[C@@H]2C[C@H](n3cc(CCc4ccccc4)nn3)CN2C1=O) [AAR031] :: 5.24

Then there is this binder:
Exam item: // Input: IENI[X3]WK-NH2 (lactam 2-7, Ferrocenyl analogue of AAR024) [AAR024b] . Output its pIC50 only.
Marked response: 7.40
